Measured screen value values are reported for all entries that follow.
B1: ATGL (PNPLA2, patatin-like phospholipase domain-containing protein 2), human, full length / G0S2 (G0/G1 switch protein 2), human (parent)
chain 1: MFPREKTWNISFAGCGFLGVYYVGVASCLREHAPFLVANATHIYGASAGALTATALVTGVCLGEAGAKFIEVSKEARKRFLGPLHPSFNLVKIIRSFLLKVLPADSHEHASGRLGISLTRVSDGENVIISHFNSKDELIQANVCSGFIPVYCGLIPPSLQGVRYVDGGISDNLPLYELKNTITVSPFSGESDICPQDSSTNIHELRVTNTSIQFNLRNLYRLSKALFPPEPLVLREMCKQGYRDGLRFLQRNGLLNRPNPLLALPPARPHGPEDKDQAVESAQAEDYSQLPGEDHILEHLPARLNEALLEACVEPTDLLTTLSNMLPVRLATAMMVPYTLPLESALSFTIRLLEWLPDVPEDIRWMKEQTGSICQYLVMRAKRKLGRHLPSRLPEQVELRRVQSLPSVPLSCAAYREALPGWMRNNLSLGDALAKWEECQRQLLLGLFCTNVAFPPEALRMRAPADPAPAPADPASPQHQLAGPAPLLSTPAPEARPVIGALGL
chain 2: METVQELIPLAKEMMAQKRKGKMVKLYVLGSVLALFGVVLGLMETVCSPFTAARRLRDQEAAVAELQAALERQALQKQALQEKGKQQDTVLGGRALSNRQHAS

# Variants of: B1
# ASSAY SUMMARY: LUMIER: Protein A-ATGL variant and firefly luciferase-partner co-expressed in HEK293T, lysates immunoprecipitated on IgG-coated plates, co-precipitated partner measured as luciferase luminescence
# MEASUREMENT SETUP: with G0S2 (G0/G1 switch protein 2), transient co-transfection, IgG-coated LUMITRAC plates, 2 h at 4 °C, three PBS washes, Bright-Glo luciferase reagent, triplicates per assay, two …, parent: 0.56, not graded, scale: log2 fold change of co-immunoprecipitated luminescence relative to wild-type ATGL within each experiment
The response must contain the number and no unit.

Sample records with screen value:
screen value for chain 1 E314A is -0.218

For reference, reported screen value for chain 1 P258L stands at -1.64

Value of measured screen value for the entry chain 1 H109E : 0.0835

// screen value lookup, variant = chain 1 L178A , result: 0.0997

Measured screen value of chain 1 R329E : -0.22

More entries:
Lab note: measured screen value of chain 1 P103K was 6.88e-05
